B1: EEHEE_rd3_1049 (parent)
chain: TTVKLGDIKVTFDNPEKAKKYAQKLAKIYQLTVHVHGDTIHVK

- Variants of: B1
- test-description: folding stability dG (cDNA display proteolysis); higher = more stable
- condition-set: PBS, room temperature
Binary call on folding stability dG: 1 from 2 kcal/mol upward, 0 beneath that.

The following variants have reported results that may help.
[
  {
    "variant-code": "K43E",
    "label-class": 0
  },
  {
    "variant-code": "L31E",
    "label-class": 0
  },
  {
    "variant-code": "K9H",
    "label-class": 1
  }
]

For this variant, is measured folding stability dG 2 kcal/mol or higher? T11G 0

For this variant, is measured folding stability dG 2 kcal/mol or higher? V35I 1

For this variant, is measured folding stability dG 2 kcal/mol or higher? V3T 0
